These data points were gathered from patent US3954780A.

# test: Acute toxicity in the mouse (DL50, method of Miller and Tainter)
# conditions used: in vivo, ip, read-out: DL 50 (the source's name)
Measured LD50, listed per entry for reference.
Your answer should be a plain number; it is taken to be in mg/kg.

compound	endpoint label	unit symbol	value reported
O=C(OCCN1CCCC1)C(Cc1cccs1)Cc1csc2ccccc12 (stereo not shown)	LD50	mg/kg	320
O=C(OCCN1CCCCC1)C(Cc1csc2ccccc12)CC1CCCO1 (stereo not shown)	LD50	mg/kg	122
O=C(OCCCN1CCCCC1)C(Cc1csc2ccccc12)CC1CCCO1 (stereo not shown)	LD50	mg/kg	85

--- query ---
// LD50 value for O=C(OCCCN1CCCC1)C(Cc1cccs1)Cc1csc2ccccc12 (stereo not shown) : 160

###

Measured EC50, listed per entry for reference.
# System: isolated rat duodenum
# test: Spasmolytic activity of papaverinic type, barium chloride contracture
# conditions used: Tyrode 38°, read-out: Spasmolytic activity Papaverinic type DE 50 (converted)
Write the numeric value and follow it with the unit.

Here is how some compounds turned out for EC50.
compound	assayed target	endpoint label	value reported
O=C(OCCN1CCCCCC1)C(Cc1ccccc1)Cc1csc2ccccc12 (stereo not drawn) [Compound 28]	isolated rat duodenum	EC50	0.7 µg/mL
CN(C)CCOC(=O)C(Cc1csc2ccccc12)c1ccccc1 (stereo not drawn) [Compound 12]	isolated rat duodenum	EC50	2.5 µg/mL
CCN(CC)CCCOC(=O)C(Cc1ccccc1)Cc1csc2ccccc12 (stereo not drawn) [Compound 30]	isolated rat duodenum	EC50	0.65 µg/mL
CN(C)CCCOC(=O)C(Cc1csc2ccccc12)c1ccccc1 (stereo not drawn) [Compound 18]	isolated rat duodenum	EC50	1 µg/mL
O=C(OCCN1CCOCC1)C(Cc1csc2ccccc12)c1ccccc1 (stereo not drawn) [Compound 16]	isolated rat duodenum	EC50	5.5 µg/mL

Assay isolated rat duodenum, sample CN(C)CCOC(=O)C(Cc1ccccc1)Cc1csc2ccccc12 (stereo not drawn) [Compound 24] , EC50 read: 1.25 µg/mL

Assay isolated rat duodenum, sample O=C(OCCN1CCCCCC1)C(Cc1csc2ccccc12)CC1CCCO1 (stereo not drawn) [Compound 51] , EC50 read: 0.325 µg/mL

Assay isolated rat duodenum, sample CCN(CC)CCCOC(=O)C(Cc1csc2ccccc12)c1ccccc1 (stereo not drawn) [Compound 19] , EC50 read: 1.25 µg/mL

Assay isolated rat duodenum, sample O=C(OCCCN1CCCCCC1)C(Cc1csc2ccccc12)c1ccccc1 (stereo not drawn) [Compound 22] , EC50 read: 0.8 µg/mL

###

# System: isolated rat duodenum
# test: Spasmolytic activity of papaverinic type, barium chloride contracture
# conditions used: Tyrode 38°, read-out: Spasmolytic activity Papaverinic type DE 50 (converted)
endpoint label: EC50 (µg/mL)
Your answer should be a plain number; it is taken to be in µg/mL.

// EC50 value for C=CCC(Cc1csc2ccccc12)C(=O)OC(C)CN1CCCC1 (centres unmarked) [Compound 11] : 0.6

###

# test: Acute toxicity in the mouse (DL50, method of Miller and Tainter)
# conditions used: in vivo, ip, read-out: DL 50 (the source's name)
endpoint label: LD50 (mg/kg)
Your answer should be a plain number; it is taken to be in mg/kg.

Here is how some molecules turned out for LD50.
molecule	LD50 / mg/kg
C=CCC(Cc1csc2ccccc12)C(=O)OCCCN(CC)CC (stereo not drawn)	210
O=C(OCCCN1CCCC1)C(Cc1csc2ccccc12)CC1CCCO1 (stereo not drawn)	100

// LD50 value for C=CCC(Cc1csc2ccccc12)C(=O)OCCN1CCCCCC1 (stereo not drawn) : 150

// LD50 value for CCN(CC)CCCOC(=O)C(Cc1cccs1)Cc1csc2ccccc12 (stereo not drawn) : 240

// LD50 value for O=C(OCCN1CCCCCC1)C(Cc1csc2ccccc12)CC1CCCO1 (stereo not drawn) : 121

// LD50 value for CCN(CC)CCCOC(=O)C(Cc1csc2ccccc12)CC1CCCO1 (stereo not drawn) : 145

// LD50 value for O=C(OCCN1CCCC1)C(Cc1csc2ccccc12)CC1CCCO1 (stereo not drawn) : 140

// LD50 value for C=CCC(Cc1csc2ccccc12)C(=O)OC(C)CN1CCCC1 (stereo not drawn) : 270

###

Measured EC50, listed per entry for reference.
# Test system: isolated rat duodenum
# test: Spasmolytic activity of papaverinic type, barium chloride contracture
# conditions used: Tyrode 38°, read-out: Spasmolytic activity Papaverinic type DE 50 (converted)
Your answer should be a plain number; it is taken to be in µg/mL.

molecule	assayed target	unit symbol	value reported
O=C(OCCCN1CCCCCC1)C(Cc1cccs1)Cc1csc2ccccc12 (stereo not shown)	isolated rat duodenum	µg/mL	1.35
CN(C)CCCOC(=O)C(Cc1csc2ccccc12)CC1CCCO1 (stereo not shown)	isolated rat duodenum	µg/mL	0.7
CCN(CC)CCOC(=O)C(Cc1cccs1)Cc1csc2ccccc12 (stereo not shown)	isolated rat duodenum	µg/mL	1

// EC50 value for C=CCC(Cc1csc2ccccc12)C(=O)OCCCN1CCCCC1 (stereo not shown) : 1

// EC50 value for O=C(OCCN1CCCC1)C(Cc1csc2ccccc12)CC1CCCO1 (stereo not shown) : 0.185

// EC50 value for O=C(OCCN1CCCCC1)C(Cc1csc2ccccc12)CC1CCCO1 (stereo not shown) : 0.6

// EC50 value for O=C(OCCCN1CCCCC1)C(Cc1ccccc1)Cc1csc2ccccc12 (stereo not shown) : 0.475

// EC50 value for CN(C)CCCOC(=O)C(Cc1cccs1)Cc1csc2ccccc12 (stereo not shown) : 0.525

// EC50 value for O=C(OCCCN1CCCCC1)C(Cc1csc2ccccc12)CC1CCCO1 (stereo not shown) : 0.375

// EC50 value for CCN(CC)CCOC(=O)C(Cc1csc2ccccc12)CC1CCCO1 (stereo not shown) : 1.25

// EC50 value for C=CCC(Cc1csc2ccccc12)C(=O)OCCN1CCCCCC1 (stereo not shown) : 1

// EC50 value for O=C(OCCCN1CCCCCC1)C(Cc1ccccc1)Cc1csc2ccccc12 (stereo not shown) : 0.425

// EC50 value for O=C(OCCN1CCCCC1)C(Cc1ccccc1)Cc1csc2ccccc12 (stereo not shown) : 0.6

// EC50 value for O=C(OCCN1CCCCC1)C(Cc1cccs1)Cc1csc2ccccc12 (stereo not shown) : 0.8

// EC50 value for O=C(OCCN1CCOCC1)C(Cc1cccs1)Cc1csc2ccccc12 (stereo not shown) : 4

// EC50 value for O=C(OCCN1CCCCC1)C(Cc1csc2ccccc12)c1ccccc1 (stereo not shown) : 3.5

// EC50 value for O=C(OCCCN1CCCC1)C(Cc1csc2ccccc12)CC1CCCO1 (stereo not shown) : 0.6

// EC50 value for CCN(CC)CCOC(=O)C(Cc1ccccc1)Cc1csc2ccccc12 (stereo not shown) : 0.9

// EC50 value for CC(CN1CCCCC1)OC(=O)C(Cc1csc2ccccc12)c1ccccc1 (stereo not shown) : 0.35

// EC50 value for O=C(OCCCN1CCCC1)C(Cc1cccs1)Cc1csc2ccccc12 (stereo not shown) : 1.25

// EC50 value for O=C(OCCCN1CCCC1)C(Cc1csc2ccccc12)c1ccccc1 (stereo not shown) : 0.95

// EC50 value for C=CCC(Cc1csc2ccccc12)C(=O)OCCCN(C)C (stereo not shown) : 1

// EC50 value for C=CCC(Cc1csc2ccccc12)C(=O)OCCCN1CCCC1 (stereo not shown) : 4

// EC50 value for CC(CN1CCCC1)OC(=O)C(Cc1ccccc1)Cc1csc2ccccc12 (stereo not shown) : 0.8

// EC50 value for CN(C)CCOC(=O)C(Cc1csc2ccccc12)CC1CCCO1 (stereo not shown) : 0.75

// EC50 value for O=C(OCCN1CCCC1)C(Cc1ccccc1)Cc1csc2ccccc12 (stereo not shown) : 0.6

// EC50 value for C=CCC(Cc1csc2ccccc12)C(=O)OCCCN1CCCCCC1 (stereo not shown) : 0.65

// EC50 value for C=CCC(Cc1csc2ccccc12)C(=O)OCCN1CCCC1 (stereo not shown) : 1.15

// EC50 value for CC(CN1CCCC1)OC(=O)C(Cc1cccs1)Cc1csc2ccccc12 (stereo not shown) : 0.5

// EC50 value for C=CCC(Cc1csc2ccccc12)C(=O)OCCN(CC)CC (stereo not shown) : 0.125

// EC50 value for O=C(OCCN1CCCC1)C(Cc1csc2ccccc12)c1ccccc1 (stereo not shown) : 1.75

###

# Tested on: isolated rat duodenum
# test: Spasmolytic activity of papaverinic type, barium chloride contracture
# conditions used: Tyrode 38°, read-out: Spasmolytic activity Papaverinic type DE 50 (converted)
endpoint label: EC50 (mg/L)
Your answer should be a plain number; it is taken to be in mg/L.

Here is how some compounds turned out for EC50.
compound	EC50 / mg/L
CCN(CC)CCOC(=O)C(Cc1csc2ccccc12)c1ccccc1 (stereo not shown)	2.25
CN(C)CCCOC(=O)C(Cc1ccccc1)Cc1csc2ccccc12 (stereo not shown)	0.425
O=C(OCCCN1CCCCC1)C(Cc1csc2ccccc12)c1ccccc1 (stereo not shown)	0.95

--- query ---
// EC50 value for O=C(OCCN1CCCC1)C(Cc1cccs1)Cc1csc2ccccc12 (stereo not shown) : 0.65
